target: VIM-2 metallo-beta-lactamase (Pseudomonas aeruginosa); test: inhibition of VIM-2 substrate hydrolysis – biochemical, epi-absorbance, common IMP-1/VIM-2 hits, dose response (AID 2754); conditions: purified VIM-2 enzyme
Calls of active or inactive are those of the source. How the calls were made is not given here.
Metric name: IC50

# count of solved cases: 5
* Cc1nn(C)c(C)c1N1C(=O)c2cccc3c(N)ccc(c23)C1=O | 8.99 µM
* O=c1cc(C(F)(F)F)c2cc3c4c(c2o1)CCCN4CCC3 | inactive
* CC(=O)Nc1ccc(N2C(=O)c3cccc4c(O)ccc(c34)C2=O)cc1 | inactive
* COc1ccc2c(Cl)c(C(=O)NCCCn3ccnc3)sc2c1Cl | > 59.6 µM (inactive)
* O=C(Nc1ccc(C(F)(F)F)cc1)c1ccc(NC(=O)C2CCCO2)cc1 (stereo unspecified) | > 59.6 µM (inactive)

Exercise: # lookup: IC50 of CCCN1C(=O)c2cccc3c(N4CCCCC4)ccc(c23)C1=O
Solution: > 59.6 µM (inactive)
